Assay: BET inhibitor-based combinations targeting novel dependencies in MECOM-rearranged (r) AML: SET-2 cell line (AID 2202231); further: potency means the concentration at half of the fitted maximal effect; nearly all actives have a fitted effect of over 35% in size
Details: SET-2 AML cells viability, CellTiter-Glo luminescence, 48 h
Results filed as inconclusive are left out. Active and inactive are the calls of the source. The call rests on the fitted dose curve; in most records, active means well fitted inhibition curve with a large enough effect; inconclusive means small, poorly fitted or top-dose-only effect; inactive means no such curve, though single readings can be large or run the other way.
Known Potency of a selection of compounds

Worked examples follow.
INSERT INTO measurements (compound, property, reported_measurement) VALUES
  ('Cc1ccc(C2=Nc3ccc(Cl)cc3OC2)cc1', 'Potency', '8.33 µM (active)'),
  ('COc1ccc(S(=O)(=O)N(C(C)=O)c2ccccc2/C=C/c2cc[n+]([O-])cc2)cc1', 'Potency', '2.63 µM (active)'),
  ('CN[C@@H](C)C(=O)N[C@H](C(=O)N1CCC[C@H]1c1nc(C(=O)c2ccc(F)cc2)cs1)C1CCCCC1', 'Potency', '16.6 µM (active)'),
  ('O=C(/C=C/c1ccc2ccc(C(F)(F)F)cc2n1)c1ccncc1', 'Potency', '2.63 µM (active)'),
  ('CN1N=C(N)c2cn([C@@H]3O[C@H](COP(=O)(O)O)[C@@H](O)[C@@H]3O)c3ncnc1c23', 'Potency', '2.63 µM (active)');

Which Potency is reported for this compound? "C=C1C(=O)O[C@@H]2[C@H]3O[C@]3(C)CC/C=C(\C)CC[C@@H]12" 11.8 µM (active)

Which Potency is reported for this compound? "CSc1ccc(C(=O)/C=C/c2cc(C)c(OC(C)(C)C(=O)O)c(C)c2)cc1" 34 µM (active)

Which Potency is reported for this compound? COc1cc(O)c2c(c1)C1OC1C[C@H](O)[C@H](O)C(=O)C=CC[C@H](C)OC2=O (stereo partly drawn) 5.9 µM (active)
